Test: Pharmacokinetics after sublingual (oromucosal) vs. oral delivery of idebenone micro-emulsion in dogs
Assay type: in vivo, Beagle dogs
Settings: beagle, dog; 4 mg/kg oro-mucosal (sublingual), micro-emulsion of example 1, dogs n=3, plasma, mean
measuredQuantity: Tmax (min)
Numbers only, in min.

Query (compound): COC1=C(OC)C(=O)C(CCCCCCCCCCO)=C(C)C1=O ; field requested: Tmax 6.3

====

Test: Pharmacokinetics after sublingual (oromucosal) vs. oral delivery of idebenone micro-emulsion in dogs
Type: in vivo, Beagle dogs
Conditions: beagle, dog; 4 mg/kg oro-mucosal (sublingual), micro-emulsion of example 1, dogs n=3, plasma, mean
Description: Quantification of idebenone was performed by liquid chromatography (LC) coupled on-line with tandem mass spectrometry (MS/MS). Calibration samples were prepared in human plasma and quality control (QC) samples were prepared in dog plasma. […] Idebenone was separated and quantified by HPLC-MS/MS: For HPLC, a Synergi™ 4μ MAX-RP (50×2 mm) column (Phenomenex, Schlieren, Switzerland) was used. […]
measuredQuantity: Cmax (ng/mL)
Give bare numbers, in ng/mL.

Suppose we examine the compound COC1=C(OC)C(=O)C(CCCCCCCCCCO)=C(C)C1=O ; what Cmax value has been reported? 106

====

Experiment: Pharmacokinetics after sublingual (oromucosal) vs. oral delivery of idebenone micro-emulsion in dogs
Assay type: in vivo, Beagle dogs
Conditions: beagle, dog; 40 mg/kg oral (p.o.), dogs n=3, plasma, mean
measuredQuantity: Tmax (min)
Answers are plain numbers, in min.

Dear colleague, I am looking for the recorded Tmax of the following compound: COC1=C(OC)C(=O)C(CCCCCCCCCCO)=C(C)C1=O 22.7

====

Experiment: Pharmacokinetics after sublingual (oromucosal) vs. oral delivery of idebenone micro-emulsion in dogs
Type: in vivo, Beagle dogs
Conditions: beagle, dog; 40 mg/kg oral (p.o.), dogs n=3, plasma, mean; read-out: AUC0-480 of idebenone (converted)
measuredQuantity: AUC(0-t) (ng·h/mL)
Numbers only, in ng·h/mL.

Param item = COC1=C(OC)C(=O)C(CCCCCCCCCCO)=C(C)C1=O ; retrieve measured AUC(0-t). 18

====

Assay: Pharmacokinetics after sublingual (oromucosal) vs. oral delivery of idebenone micro-emulsion in dogs
Assay type: in vivo, Beagle dogs
Settings: beagle, dog; 4 mg/kg oro-mucosal (sublingual), micro-emulsion of example 1, dogs n=3, plasma, mean; read-out: AUC0-480 of idebenone (converted)
measuredQuantity: AUC(0-t)
Please give the number followed by its unit.

Recorded AUC(0-t) of COC1=C(OC)C(=O)C(CCCCCCCCCCO)=C(C)C1=O , please. 21.1 ng·h/mL
